Assignment: determine reported cytotoxicity at 10 µM for the given compounds.
experimental details: Toxicity liver stage against HepG2, at 10uM
Assay type: cell-based
Set-up: test concentration 10 uM, cell line HepG2-A16-CD81EGFP
assay context: human, HepG2-A16-CD81EGFP cells; read-out: INHIBITION
Use % as the unit, but write only the number.

GET /values?readout=cytotoxicity at 10 µM&item= CNC(=O)NC(=O)C(NCc1cccs1)c1ccccc1 (stereo unspecified) 6.75

GET /values?readout=cytotoxicity at 10 µM&item= CC(CC(=O)c1ccco1)NC(=O)c1ccon1 (stereo unspecified) -17.9

GET /values?readout=cytotoxicity at 10 µM&item= CC1CN(C)CCN1Cc1cccc(C(=O)NCc2ccco2)c1 (stereo unspecified) 3.33

GET /values?readout=cytotoxicity at 10 µM&item= CCc1nccn1C1CCCN(C(=O)Cc2cn3ccccc3n2)C1 (stereo unspecified) -2.72

GET /values?readout=cytotoxicity at 10 µM&item= CNCCc1nc2cc(Cl)ccc2[nH]1 21.2

GET /values?readout=cytotoxicity at 10 µM&item= CN(CCOc1ccc(Cl)cc1)Cc1ccc(S(=O)(=O)N(C)C)o1 33.6
